Data provenance is PubChem BioAssay AID590.

Assay: qHTS Assay for Spectroscopic Profiling in A350 Spectral Region
Conditions: Compound autofluorescence, 340/450 nm, Alexa 350 dye-equivalents
Among all 59,000 compounds or so, about 6,500 (11%) were called active. Inconclusive results (about 15%) are left out. Rule as the data show it: active = max dye-equivalent concentration above about 10 nM; inconclusive = mostly about 1.1 nM to 9.6 nM; inactive = weaker than that. The sample holds actives, similar compounds and a random draw of the others, so the mix is not that of the screen.
Respond with a class label; see active, inactive

Illustrative cases are given below, each with its answer.
| compound | label class |
| --- | --- |
| COc1cc(C2C3C(=O)N(c4ccccc4)C(=O)C3ON2c2ccccc2)ccc1O (configuration not stated) | inactive |
| ClC(Cl)(Cl)C(N1CCN(c2ccccc2)CC1)N1CCN(c2ccccc2)CC1 | inactive |
| Cc1cccc(-n2ncc3c(N4CCc5ccccc54)ncnc32)c1 | active |
| CCOc1ccccc1NC(=O)CCc1ccc(C)o1 | inactive |

INPUT: Per the records of this test, what outcome belongs to CC(=O)N1CCC(C(=O)Nc2nc(-c3ccccc3)ns2)CC1 ?
OUTPUT: active

INPUT: Fill in: this test's call for CCCc1nc2c3cnn(-c4cccc(Cl)c4)c3ncn2n1 is ___
OUTPUT: inactive

INPUT: Field: outcome | Entry: O=C(CSc1nnc(-c2cnccn2)n1Cc1ccco1)c1ccc(Cl)c(Cl)c1
OUTPUT: inactive

INPUT: Which outcome was assigned to COc1ccccc1-n1cnc2cc(NS(=O)(=O)c3ccccc3)ccc21 in this test?
OUTPUT: inactive

INPUT: GET /call?item= O=c1c(-c2cccs2)nc2cnc(Oc3ccccc3)nc2n1-c1ccccc1 returns the recorded outcome of this test.
OUTPUT: active

INPUT: Called result for COc1ccc(-n2c(=O)c(-c3cn(C)c4ccccc34)nc3cnc(OC)nc32)cc1
OUTPUT: inactive

INPUT: Hi, sorry to bother you, what did the test record for Cc1ccc(-n2ncc3c2ncn2nc(-c4ccco4)nc32)c(C)c1 ?
OUTPUT: inactive

INPUT: // return assay outcome for CCCC(=O)Nc1nnc(CC(=O)OCC)s1
OUTPUT: inactive

INPUT: Dear all, I need the recorded test outcome for CC[C@@H]1Cc2cc(O)ccc2C2=C1c1ccc(O)cc1C[C@H]2CC , thank you.
OUTPUT: active
